# reported growth inhibition; entries follow
- RUN_DESCRIPTION: NCI Yeast Anticancer Drug Screen. Data for the rad50 strain (AID 155);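 further: 0% = growth of vehicle-only cultures of the same strain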
- STATED_CONDITIONS: S. cerevisiae rad50 strain growth inhibition; at 50.0 µM; hits give high values
The panel holds about 79,000 compounds, 15% with a hit somewhere; the sample as a whole holds those more often. The source made the active and inactive calls. No stated cut-off is given here; in the data, active means growth inhibition above about 70%; inactive means the rest.

COMPOUND: CCN(CC(O)COc1ccc2c(c1)[n+]([O-])nc(N)[n+]2[O-])C(C)=O (centres undefined)
growth inhibition: 46.5% (inactive)

Exercise: For the compound ClCC1CCC(CCl)CC1 (centres undefined) , report growth inhibition.
Key: -31.6% (inactive)

Exercise: For the compound CN(C)c1ccc(C(=O)CCCN2CCC(O)(c3ccc(Cl)cc3)CC2)cc1 , report growth inhibition.
Key: 37.4% (inactive)

Exercise: For the compound O=C1c2ccccc2C(=O)N1CC(O)CCl (centres undefined) , report growth inhibition.
Key: -21.3% (inactive)
